Origin of the recorded values: patent US10196363B2

Target: human RORγ (Homo sapiens)
Construct: human RORγ, from Ser253 to Lys518; expressed in transfected cells; host or cells: CHO cells (Chinese hamster ovary), transient co-transfection with pG5-Luc
Sequence (P51449 253-518): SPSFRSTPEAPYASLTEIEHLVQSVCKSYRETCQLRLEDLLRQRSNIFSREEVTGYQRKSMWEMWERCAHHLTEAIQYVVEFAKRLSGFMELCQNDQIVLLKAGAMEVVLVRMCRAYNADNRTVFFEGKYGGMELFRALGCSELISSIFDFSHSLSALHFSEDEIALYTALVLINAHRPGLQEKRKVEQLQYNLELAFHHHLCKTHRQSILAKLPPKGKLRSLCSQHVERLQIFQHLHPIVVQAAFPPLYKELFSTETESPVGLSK
Assay: In vitro assay of inhibitory effect against RORγ transcriptional activity (GAL4-hRORγ LBD luciferase reporter gene assay in CHO cells)
Format: cell-based
Details: GAL4-hRORγ LBD / pG5-Luc in CHO cells, 2 days incubation
measuredParameter: pEC50
Answers are plain numbers, as −log10 of the molar value.

Previously resolved entries follow.
compound | pEC50
CC(C)C1=CN(CCC(=O)O)C(=O)N[C@]1(C)c1ccc(CCC(C)(C)C)c(Cl)c1 | 5.17
CC(C)C1=CN(CC[C@@H](O)C(=O)O)C(=O)N[C@]1(C)c1ccc(CCC(C)(C)C)c(Cl)c1 | 6.35
CC(C)CCC1=CN(CCCC(=O)O)C(=O)N[C@@]1(C)c1ccc(CCC(C)(C)C)c(Cl)c1 | 7.29

Hi team, please reply with pEC50 for each item in this list.
1. CC(C)C1=CN([C@H]2C[C@H](C(=O)O)C2)C(=O)NC1(C)c1ccc(OCC(C)(C)C)c(Cl)c1 (mixture of isomers)
2. CC(C)(C)CCc1ccc(C2NC(=O)N(CCCC(=O)O)C=C2C(C)(C)C)cc1Cl (racemic) [Example 8]
3. CC(C)(C)CCc1ccc(C2(C)NC(=O)N(CCCC(=O)O)C=C2C2CN(S(C)(=O)=O)C2)cc1Cl (racemic)
4. CC(C)(C)CCc1ccc(C2(C)NC(=O)N(CCCC(=O)O)C=C2C(C)(C)C)cc1Cl (racemic)

[6.69, 7.68, 5.59, 7.77]
